biological target: T1, rhesus PCSK9 (rhesus, UniProt A8T666 31-692, limits assumed); assay: SPR, Biacore T200, antibody captured, monkey PCSK9 as analyte
T1 construct: A rhesus PCSK9-His from Sino Biological is named only for the ELISA of Section 4.3.2; also called monkey PCSK9; rhesus PCSK9-His
T1 sequence (A8T666 31-692 limits assumed): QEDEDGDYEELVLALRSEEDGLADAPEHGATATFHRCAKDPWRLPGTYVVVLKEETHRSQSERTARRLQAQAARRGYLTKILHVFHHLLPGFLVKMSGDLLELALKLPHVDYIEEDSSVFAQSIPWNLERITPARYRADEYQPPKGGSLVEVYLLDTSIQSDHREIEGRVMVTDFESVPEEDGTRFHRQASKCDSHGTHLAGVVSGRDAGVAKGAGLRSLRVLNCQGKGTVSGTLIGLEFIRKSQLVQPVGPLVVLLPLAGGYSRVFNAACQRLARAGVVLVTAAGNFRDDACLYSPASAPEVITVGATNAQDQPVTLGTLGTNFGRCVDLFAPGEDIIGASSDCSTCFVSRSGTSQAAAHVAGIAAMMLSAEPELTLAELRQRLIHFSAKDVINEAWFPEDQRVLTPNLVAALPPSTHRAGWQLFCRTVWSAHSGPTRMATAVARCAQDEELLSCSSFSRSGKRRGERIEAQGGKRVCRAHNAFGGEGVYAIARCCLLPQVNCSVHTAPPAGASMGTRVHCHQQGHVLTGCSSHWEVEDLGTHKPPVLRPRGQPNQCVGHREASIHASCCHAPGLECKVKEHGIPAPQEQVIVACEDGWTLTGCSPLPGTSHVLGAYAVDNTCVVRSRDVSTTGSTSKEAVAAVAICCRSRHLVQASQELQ
ATTRIBUTE MEASURED: Kd (nM)

{"BINDER": "19.3.8-uAb1-IgG4L (antibody, V domains shown, human IgG4 constant region, lambda light chain) VH: QVQLVQSGAEVKKPGASVKVSCKASGYTFTGYYINWVRQAPGQGLEWMGRINPNSGGTNYAQKFQGRVTMTRDTSINTAYMELSRLRSDDTAVYFCASWEGTVTTWDFYYYYGMDVWGQGTTVTVSS VL: QSALTQPASVSGSPGQSITISCTGTSSDVDTYNYVSWYQHHPGKAPKLIIFDVSNRPSGVSNRFSGSKSGNTASLTISGLQAEDEADYYCSSYTSSSTLVVFGGGTKLTVL", "ATTRIBUTE MEASURED": "Kd", "REPORTED RESULT": 7.16}
{"BINDER": "15.14.2-uAb-IgG4L (antibody, V domains shown, human IgG4 constant region, lambda light chain) VH: EVQMLESGGGLVQPGGSLRLSCAVSGFTFSRFAMSWVRQAPGKGLDWVSSISDNAGRTYFADSVKGRFTISRDNSKNTLYLQMNSLRADDTAVYYCAKLSNWGPYGMDVWGQGTTVTVSS VL: QSALTQPPSASGSPGQSVTISCTGTSSDVGYYNYVSWYQQHPGEAPKLMIYEVNKRPSGVPDRFSGSKSGSTASLTVSGLQAVDEADYYCSSYAGSKNFVVFGGGTKLTVL", "ATTRIBUTE MEASURED": "Kd", "REPORTED RESULT": 0.687}
{"BINDER": "17.72.3-uAb2-IgG4K (antibody, V domains shown, human IgG4 constant region, kappa light chain) VH: QVQLQESGPGLVKPSGTLSLTCAVSGGSIRSYNWWSWVRQPPGEGLEWIGEIHHSGTTNYNPSLKSRVTISVDKSKNQFSLKLSSVTAADTAVYYCARDYSGSYFDYWGQGTLVTVSS VL: EVVLTQSPATLSLSPGERATLSCRTSQSLSSYVAWSQQKPGQAPRLLIYDASKRATGVPARFSGSGSGTDFTLTISNLEPEDFAVYYCHQRGNWMSSFGQGTKLEIK", "ATTRIBUTE MEASURED": "Kd", "REPORTED RESULT": 20.5}
{"BINDER": "40409 (hIgG4) (antibody, V domains shown, human IgG4 constant region) VH: QLNLQQSGPGLVNPSQTLSLTCAISGGSVSSNSAAWNWIRQSPSRGLEWLGRIYSRSKWYHDYAVSVKGRITINPDTSKNQFFLQLNSVTPEDTAVYYCARDWETIIWGDDGPNYYNYGLDVWGQGTTVTVSS VL: DIQMTQSPSSLSASVGDRVTITCRASQGIRNDLGWYQQKPGKAPKRLIYGASSLQSGVPSRFSGSGSGTEFTLTISSLQPEDFATYYCLQHNNYLWTFGQGTKVEIK", "ATTRIBUTE MEASURED": "Kd", "REPORTED RESULT": 0.413}

Where do these numbers come from? They come from patent US20190233542A1.
